# tested-target: UniProt:B3VTJ2
# Sequence (B3VTJ2 1-941): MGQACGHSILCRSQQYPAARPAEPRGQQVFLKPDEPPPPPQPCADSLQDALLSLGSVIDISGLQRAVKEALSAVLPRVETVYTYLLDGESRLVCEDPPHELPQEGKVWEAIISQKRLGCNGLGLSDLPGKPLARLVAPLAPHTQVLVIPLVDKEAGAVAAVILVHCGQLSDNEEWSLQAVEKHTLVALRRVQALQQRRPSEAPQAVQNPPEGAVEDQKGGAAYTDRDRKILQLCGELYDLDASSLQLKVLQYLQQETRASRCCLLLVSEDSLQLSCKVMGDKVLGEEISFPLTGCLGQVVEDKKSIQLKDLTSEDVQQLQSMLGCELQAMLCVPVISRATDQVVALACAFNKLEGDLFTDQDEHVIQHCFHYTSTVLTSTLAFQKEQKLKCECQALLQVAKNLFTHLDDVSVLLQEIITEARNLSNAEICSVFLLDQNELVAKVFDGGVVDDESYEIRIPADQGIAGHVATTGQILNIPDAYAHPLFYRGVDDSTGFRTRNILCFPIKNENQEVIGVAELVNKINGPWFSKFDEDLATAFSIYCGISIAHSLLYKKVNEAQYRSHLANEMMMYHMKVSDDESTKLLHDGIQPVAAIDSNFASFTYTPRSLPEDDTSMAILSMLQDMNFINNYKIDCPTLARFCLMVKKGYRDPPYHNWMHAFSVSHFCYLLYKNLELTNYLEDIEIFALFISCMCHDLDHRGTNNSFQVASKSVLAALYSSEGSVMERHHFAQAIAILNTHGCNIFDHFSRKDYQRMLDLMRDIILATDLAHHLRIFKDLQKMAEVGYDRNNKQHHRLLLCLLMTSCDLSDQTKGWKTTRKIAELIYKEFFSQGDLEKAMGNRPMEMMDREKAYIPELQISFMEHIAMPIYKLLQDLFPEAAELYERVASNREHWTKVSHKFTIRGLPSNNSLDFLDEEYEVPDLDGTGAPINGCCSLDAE
# test-description: PDE2 fluorescence polarization (IMAP FP) inhibition assay, rhesus enzyme
# Format: biochemical, rhesus macaque
# condition-label: Rhesus PDE2, Lab B; read-out: Rhesus PDE2 Ki (nM) - Lab B
# Procedure: The activity of the compounds in accordance with the present invention as PDE2 inhibitors may be readily determined using a fluorescence polarization (FP) methodology (Huang, W., et al., J. Biomol Screen, 2002, 7: 215). In a typical experiment the PDE2 inhibitory activity of the compounds of the present invention was determined in accordance with the following experimental method. […] 0% of inhibition is determined by using DMSO (1% final concentrations). […]
observable: Ki (nM)

molecule	output-unit	result
Cc1nc(C(=O)NC2(c3ccc(SC(F)(F)F)c(F)c3)CC2)cc(=O)[nH]1	nM	37

P: CC(C)[C@@H](NC(=O)c1cc(=O)[nH]c(-c2ccccc2)n1)c1ccc(S(F)(F)(F)(F)F)cc1
Q: CC(NC(=O)c1cc(=O)[nH]c(-c2ncccn2)n1)c1ccc(C2CC2)cc1 (stereo not shown)
R: COc1ccc(C(C)(C)c2nc(C(=O)N[C@@H](c3ccc(SC(F)(F)F)cc3)C3CC3)cc(=O)[nH]2)cc1
Prompt: Hey, quick one: sort these by Ki, largest value first please. Give the order by naming the labels one after another as requested.
Response: R, Q, P
(R: 79 nM, Q: 26 nM, P: 4.7 nM)

Cited source: patent US9815796B2
